Origin of values: ChEMBL document CHEMBL4680090

pIC50: −log10 of the molar value.
Dear all, this message contains pIC50 results, target or system High affinity nerve growth factor receptor (Homo sapiens).
Outcome Measure: pIC50

Recorded results for 4 compounds are shown here.
Query: Would you kindly share the measured pIC50 for CC(C)n1cc(C(=O)c2cncc(NC(=O)Cc3ccc(Cl)cc3)c2)c2cnc(N)nc21 ?
Result: 8.22

Query: Would you kindly share the measured pIC50 for CC(C)n1cc(C(=O)c2cncc(NC(=O)Cc3ccc(Cl)cc3)c2)c2cncnc21 ?
Result: 7.92

Query: Would you kindly share the measured pIC50 for CC(C)n1cc(C(=O)c2cncc(NC(=O)Cn3ccc(C4CC4)n3)c2)c2cncnc21 ?
Result: 7.74

Query: Would you kindly share the measured pIC50 for CC(C)n1cc(C(=O)c2cncc(NC(=O)Cc3ccc(C#N)cc3)c2)c2c(N)ncnc21 ?
Result: 7.14

(I) CC(C)n1cc(C(=O)c2cncc(NC(=O)Cn3ccc(C4CC4)n3)c2)c2cnc(N)nc21
(II) CC(C)n1cc(C(=O)c2cncc(NC(=O)Cn3ccc(C4CC4)n3)c2)c2cncc(F)c21
Query: Would you mind telling me which has the lower recorded pIC50 between I and II ? Identify your pick by its label.
Result: II
(II: 7.48, I: 8.10)

* * *

# Method Description: in vivo
# Details: rat, brain and plasma, po, 100 mg/kg
Outcome Measure: Kp uu at 3 h

(I) CC(C)n1cc(C(=O)c2cncc(NC(=O)Cc3ccc(C#N)cc3)c2)c2c(N)ncnc21
(II) CC(C)n1cc(C(=O)c2cncc(NC(=O)Cn3ccc(C(F)(F)F)n3)c2)c2cnccc21
Query: # argmax over Kp uu at 3 h for candidates I and II Identify your pick by its label.
Result: I

* * *

# Method Description: Clearance in rat at 1 mg/kg, iv
# Type: ADME, organism-based
# Details: in vivo
Outcome Measure: clearance (mL/min/kg)
Write the number in mL/min/kg without appending the unit.

Query: Would you kindly share the measured clearance for CC(C)n1cc(C(=O)c2cncc(NC(=O)Cn3ccc(C(F)(F)F)n3)c2)c2cnccc21 ?
Result: 50

* * *

# Method Description: physchem
# Details: octanol/water, pH 7.4
Outcome Measure: logD

Query: Would you kindly share the measured logD for CC(C)n1cc(C(=O)c2cncc(NC(=O)Cn3ccc(C4CC4)n3)c2)c2cncnc21 ?
Result: 2.5

Query: Would you kindly share the measured logD for CC(C)n1cc(C(=O)c2cncc(NC(=O)Cc3ccc(Cl)cc3)c2)c2cncnc21 ?
Result: 3.7

Query: Would you kindly share the measured logD for CC(C)n1cc(C(=O)c2cncc(NC(=O)Cn3ccc(C4CC4)n3)c2)c2cnccc21 ?
Result: 2.7

Query: Would you kindly share the measured logD for CC(C)(CO)n1cc(C(=O)c2cncc(NC(=O)Cc3ccc(Cl)cc3)c2)c2cnc(N)nc21 ?
Result: 3.7

Query: Would you kindly share the measured logD for CC(C)n1cc(C(=O)c2cncc(NC(=O)Cn3ccc(C(F)(F)F)n3)c2)c2cnccc21 ?
Result: 3

* * *

# System: human BCRP
# Method Description: in vitro
# Details: dog
Outcome Measure: efflux ratio

(a) CC(C)n1cc(C(=O)c2cncc(NC(=O)Cn3ccc(C4CC4)n3)c2)c2cncnc21
(b) CC(C)n1cc(C(=O)c2ccnc(NC(=O)Cc3ccc(F)cc3F)c2)c2c(N)ncnc21
Query: Would you mind telling me which has the lower recorded efflux ratio between a and b ? Identify your pick by its label.
Result: b
(b: 10.9, a: 38)
